Source listed as paper PMC11117541.

Tested on: shoot (rosette) of Arabidopsis seedlings
experiment-summary: Shoot growth, diameter of rosettes (Figure S1)
Type: in vivo, Arabidopsis thaliana
measurement-setup: two-way ANOVA output; by table order A = mock, B = peptide, row 2 = Day 4
recorded-endpoint: Mean diff, A2 - B2, diameter of rosettes

Worked cases, answers included:
AtPEP1^(5–23): truncated peptide of AtPEP1(1–23), residues 5–23 (KAKQRGKEKVSSGRPGQHN; Elicitor peptide 1; UniProt Q9LV87 74-92, looked up, fragment); 0.1141
AtPEP1^(9–23): truncating eight amino acids from the N-terminus of AtPEP1(1–23) (RGKEKVSSGRPGQHN; Elicitor peptide 1; UniProt Q9LV87 78-92, looked up, fragment); 0.1045
AtPEP1^(9–22): C-terminal truncated peptide created from AtPEP1(9–23) (RGKEKVSSGRPGQH; Elicitor peptide 1; UniProt Q9LV87 78-91, looked up, fragment); -0.02327
AtPEP1^(1–23): plant elicitor peptide 1 (PEP1) from Arabidopsis thaliana, composed of 23 amino acids, immune elicitor (ATKVKAKQRGKEKVSSGRPGQHN; Elicitor peptide 1; UniProt Q9LV87 70-92, looked up) [reference compound]; 0.05081
AtPEP1^(11–23): truncated peptide of AtPEP1(1–23), residues 11–23 (KEKVSSGRPGQHN; Elicitor peptide 1; UniProt Q9LV87 80-92, looked up, fragment); 0.1293

Shifting focus to the substance that follows.
[in] Quick one: Mean diff, A2 - B2, diameter of rosettes of AtPEP1^(13–23): truncating 12 amino acids from the N-terminus of AtPEP1(1–23) (KVSSGRPGQHN; Elicitor peptide 1; UniProt Q9LV87 82-92, looked up, fragment) ?
[out] 0.03538
